# target-under-test: RNP_CAL (PB2, PB1, PA, NP, influenza A Luciferase reporter in 293T cells) (Influenza A virus (strain swl A/California/04/2009 H1N1))
# assay-notes: cell-based
Criterion: EC50 strictly less than 100 nM. Met: true. Not met: false.

{"molecule": "O=c1cnn2c(c1O)-c1nccn1C[C@@H]2[C@@H](c1ccc(F)cc1)c1ccc(Cl)cc1", "category-label": "false"}

Given O=c1cnn2c(c1O)-c1nccn1C[C@@H]2[C@@H](c1ccccc1)c1ccc(F)cc1 , is recorded EC50 strictly lower than 100 nM?
false

Regarding CSc1cccc([C@H](c2ccc(F)cc2)[C@H]2Cn3ccnc3-c3c(O)c(=O)cnn32)c1 , kindly confirm whether its EC50 is beneath 100 nM.
true

In plain terms, does O=c1cnn2c(c1O)-c1nccn1CC2C(c1cccc(Cl)c1)c1cccc(Cl)c1 (stereo not shown) come in under 100 nM for EC50?
true

Determine if Cc1ccccc1[C@H](c1ccc(F)cc1)[C@H]1Cn2c(CO)cnc2-c2c(O)c(=O)cnn21 shows EC50 strictly lower than 100 nM.
true

Identify whether the molecule O=c1ccn2c(c1O)-c1ncc(C3CC3)n1C[C@@H]2C(c1ccccc1)c1ccccc1 records EC50 below 100 nM.
false

Does the reported EC50 of O=c1cnn2c(c1O)-c1nccn1CC2C(c1ccccc1)c1ccccc1 (stereo not shown) stay below 100 nM?
false

Criterion: EC50 strictly below 100 nM. Is it met by O=c1cnn2c(c1O)-c1nccn1C[C@@H]2C(c1ccc(F)cc1)c1ccc(F)cc1 ?
true

Determine if O=c1ccn2c(c1O)-c1nccn1CN2C1c2ccccc2CSc2ccccc21 (stereo not shown) shows EC50 strictly lower than 100 nM.
true

* * *

# target-under-test: RNP_CAL (PB2, PB1, PA, NP, influenza A Luciferase reporter in 293T cells) (Influenza A virus (strain swl A/California/04/2009 H1N1), UniProt C3W5S0)
# assay-notes: cell-based
readout-kind: EC50 (nM)
Field format: number, assumed nM, no unit text.

Below, each entry is followed by its recorded EC50 result.
{"compound": "O=c1cnn2c(c1O)-c1nccn1C[C@@H]2[C@@H](c1ccc(F)cc1)c1cccc(F)c1", "EC50 / nM": 36}
{"compound": "O=c1cnn2c(c1O)-c1nccn1C[C@@H]2[C@@H](c1ccc(F)cc1)c1cccc(Cl)c1", "EC50 / nM": 37}
{"compound": "O=c1ccn2c(c1O)-c1nccn1C(C1CC1)N2C(c1ccccc1)c1ccccc1 (centres unmarked)", "EC50 / nM": 170}
{"compound": "O=c1cnn2c(c1O)-c1nccn1C[C@@H]2[C@H](c1ccccc1)c1ccc(F)cc1", "EC50 / nM": 10}
{"compound": "O=c1cnn2c(c1O)-c1nc(Br)c(Br)n1C[C@@H]2C(c1ccc(F)cc1)c1ccc(F)cc1", "EC50 / nM": 4300}

For COCc1cnc2n1C[C@H](C(c1ccccc1)c1ccccc1)n1ccc(=O)c(O)c1-2 , what is its reported EC50?
92

Quick one: EC50 for O=c1cnn2c(c1O)-c1nccn1C[C@@H]2[C@H](c1ccc(F)cc1)c1ccc(C(F)(F)F)nc1 ?
720

Reported EC50, compound CC(=O)Oc1c2n(ncc1=O)[C@@H](C(c1ccc(F)cc1)c1ccc(F)cc1)Cn1ccnc1-2 : ____
22

* * *

// pEC50 lookup, one value per entry
# target-under-test: RNP_CAL (PB2, PB1, PA, NP, influenza A Luciferase reporter in 293T cells) (Influenza A virus (strain swl A/California/04/2009 H1N1), UniProt C3W5S0)
# assay-notes: cell-based
Here pEC50 is given on a logarithmic scale as minus log10 of the concentration in mol/L.

// worked examples, pEC50 included
{"molecule": "O=c1ccn2c(c1O)-c1nccn1C[C@@H]2C(c1ccccc1)c1ccccc1", "pEC50": 6.80}
{"molecule": "O=c1ccn2c(c1O)-c1ncc(Cl)n1C[C@@H]2C(c1ccccc1)c1ccccc1", "pEC50": 7.00}

Sample O=c1ccn2c(c1O)-c1nccn1C(C1CC1)N2C1c2ccccc2CSc2ccccc21 (stereo not drawn) — what was its pEC50?
6.80
